Reference source for all entries: patent US20220202753A1

test_protocol: Combined results of the two pilot pharmacokinetic studies (first in human and dose escalation)
Assay type: in vivo
condition_info: human, plasma, oral, two pilot studies, 10- to 60-minute IV infusions, healthy volunteers; read-out: estimated mean bioavailability of oral baclofen
experimental_readout: bioavailability

Prompt: Need bioavailability, item NCC(CC(=O)O)c1ccc(Cl)cc1 (stereo not shown) [baclofen, 4-amino-3-[4-chlorophenyl] butanoic acid]
Completion: 74 to 85%
